// values below are reported melting point
ASSAY_METRIC: melting point

CHEMICAL_STRING: C=CC(=O)OCCCCCCCCCCCCOc1ccc(-c2cccc(F)c2F)cc1
VALUE: 59.7 to 60.7 °C
//
CHEMICAL_STRING: CCCCc1nc(Cl)c(CO)n1Cc1ccc(Oc2ccccc2C(=O)O)cc1
VALUE: 178 to 180 °C
//
CHEMICAL_STRING: OC1CCN(CCCOc2ccc3cc(-c4n[nH]c5cc(-c6ccccc6)sc45)[nH]c3c2)CC1
VALUE: 239 to 242 °C
//
CHEMICAL_STRING: COC(=O)CCc1ccc(-n2c(C)nn(-c3ccc(C#N)cc3)c2=O)cc1
VALUE: 163 to 164 °C
//
CHEMICAL_STRING: O=C(CCCCCNC(=O)Nc1cn2c3c(cccc13)CCC2)NO
VALUE: 161 to 163 °C
